# assay.comment: BTK FAC plasma stability assay, rat plasma
# Type: in vitro ADME
# details: 24 h
I'd appreciate it if you could supply % Release of degrader after 24 h rat values for the items below.

Output measured % Release of degrader after 24 h rat for this item: CCCCCCCCCCCN(C(=O)CCCCCCCCCC(=O)O)C(CCC(=O)NCCOCCOCCOCCOCCOCCOCCOCCOCCOCCOCCOCCOCCC(=O)NCCOP(=O)(O)OC(C)(C)c1ccc(C(=O)Nc2cc(F)cc(-c3ncnc4[nH]c(-c5ccc(CCN6CCC7(CC6)CCN(C(=O)c6ccc(OC)c(N8CCC(=O)NC8=O)c6)CC7)cc5)cc34)c2C)c(F)c1)C(=O)O (stereo not drawn) [Example A39]
0%

Output measured % Release of degrader after 24 h rat for this item: CCCCCCCCCCCN(C(=O)CCCCCCCCCC(=O)O)C(CCC(=O)NCCOCCOCCOCCOCCOCCOCCOCCOCCOCCOCCOCCOCCC(=O)NCc1cc(C(=O)OC(C)(C)c2ccc(C(=O)Nc3cc(F)cc(-c4ncnc5[nH]c(-c6ccc(CCN7CCC8(CC7)CCN(C(=O)c7ccc(OC)c(N9CCC(=O)NC9=O)c7)CC8)cc6)cc45)c3C)c(F)c2)ccn1)C(=O)O (stereo not drawn) [Example A26]
7.6%

Output measured % Release of degrader after 24 h rat for this item: COc1ccc(C(=O)N2CCC3(CCN(CCc4ccc(-c5cc6c(-c7cc(F)cc(NC(=O)c8ccc(C(C)(C)OC(=O)CNC(=O)CCOCCOCCOCCOCCOCCOCCOCCOCCOCCOCCOCCOCCNC(C)=O)cc8F)c7C)ncnc6[nH]5)cc4)CC3)CC2)cc1N1CCC(=O)NC1=O [Example A33]
16.7%

====

I'd appreciate it if you could supply % Release of degrader after 24 h rat values for the items below.
# assay.comment: BTK FAC plasma stability assay, rat plasma
# Type: in vitro ADME
# details: 24 h
Report as a plain number; the unit % is understood.

Output measured % Release of degrader after 24 h rat for this item: CCCCCCCCCCCN(C(=O)CCCCCCCCCC(=O)O)C(CCC(=O)NCCOCCOCCOCCOCCOCCOCCOCCOCCOCCOCCOCCOCCC(=O)NCC(=O)OC(C)(C)c1ccc(C(=O)Nc2cc(F)cc(-c3ncnc4[nH]c(-c5ccc(CCN6CCC7(CC6)CCN(C(=O)c6ccc(OC)c(N8CCC(=O)NC8=O)c6)CC7)cc5)cc34)c2C)c(F)c1)C(=O)O (centres unmarked)
17.4

Output measured % Release of degrader after 24 h rat for this item: CCCCCCCCCCCN(C(=O)CCCCCCCCCC(=O)O)C(CCC(=O)NCCOCCOCCOCCOCCOCCOCCOCCOCCOCCOCCOCCOCCC(=O)N[C@@H](C)CC(=O)OC(C)(C)c1ccc(C(=O)Nc2cc(F)cc(-c3ncnc4[nH]c(-c5ccc(CCN6CCC7(CC6)CCN(C(=O)c6ccc(OC)c(N8CCC(=O)NC8=O)c6)CC7)cc5)cc34)c2C)c(F)c1)C(=O)O (some centres unmarked)
0.3

====

I'd appreciate it if you could supply % Release of degrader after 24 h PBS values for the items below.
# assay.comment: BTK FAC plasma stability assay, PBS buffer arm
# Assay type: physicochemical
# details: 24 h

Output measured % Release of degrader after 24 h PBS for this item: CCCCCCCCCCCN(C(=O)CCCCCCCCCC(=O)O)C(CCC(=O)NCCOCCOCCOCCOCCOCCOCCOCCOCCOCCOCCOCCOCCC(=O)N1CCN(CC(=O)OC(C)(C)c2ccc(C(=O)Nc3cc(F)cc(-c4ncnc5[nH]c(-c6ccc(CCN7CCC8(CC7)CCN(C(=O)c7ccc(OC)c(N9CCC(=O)NC9=O)c7)CC8)cc6)cc45)c3C)c(F)c2)CC1)C(=O)O (stereo not drawn)
1.3%

Output measured % Release of degrader after 24 h PBS for this item: COCCOCCOCCOCCOCCOCCOCCOCCOCCOCCOCCOCCC(=O)NCC(=O)OC(C)(C)c1ccc(C(=O)Nc2cc(F)cc(-c3ncnc4[nH]c(-c5ccc(CCN6CCC7(CC6)CCN(C(=O)c6ccc(OC)c(N8CCC(=O)NC8=O)c6)CC7)cc5)cc34)c2C)c(F)c1
5.2%

Output measured % Release of degrader after 24 h PBS for this item: CCCCCCCCCCCN(C(=O)CCCCCCCCCC(=O)O)C(CCC(=O)NCCOCCOCCOCCOCCOCCOCCOCCOCCC(=O)NCC(=O)OC(C)(C)c1ccc(C(=O)Nc2cc(F)cc(-c3ncnc4[nH]c(-c5ccc(CCN6CCC7(CC6)CCN(C(=O)c6ccc(OC)c(N8CCC(=O)NC8=O)c6)CC7)cc5)cc34)c2C)c(F)c1)C(=O)O (stereo not drawn)
2.8%

Output measured % Release of degrader after 24 h PBS for this item: CCCCCCCCCCCN(C(=O)CCCCCCCCCCO)C(CCC(=O)NCCOCCOCCOCCOCCOCCOCCOCCOCCOCCOCCOCCOCCC(=O)NCCC(=O)NCCC(=O)OC(C)(C)c1ccc(C(=O)Nc2cc(F)cc(-c3ncnc4[nH]c(-c5ccc(CCN6CCC7(CC6)CCN(C(=O)c6ccc(OC)c(N8CCC(=O)NC8=O)c6)CC7)cc5)cc34)c2C)c(F)c1)C(=O)O (stereo not drawn)
0.1%

Output measured % Release of degrader after 24 h PBS for this item: CCCCCCCCCCCN(C(=O)CCCCCCCCCC(=O)O)C(CCC(=O)NCCOCCOCCOCCOCCOCCOCCOCCOCCOCCOCCOCCOCCC(=O)N[C@H](C)C(=O)OC(C)(C)c1ccc(C(=O)Nc2cc(F)cc(-c3ncnc4[nH]c(-c5ccc(CCN6CCC7(CC6)CCN(C(=O)c6ccc(OC)c(N8CCC(=O)NC8=O)c6)CC7)cc5)cc34)c2C)c(F)c1)C(=O)O (stereo partly drawn)
1.2%

Output measured % Release of degrader after 24 h PBS for this item: CCCCCCCCCCCN(C(=O)CCCCCCCCCC(=O)O)C(CCC(=O)NCCOCCOCCOCCOCCOCCOCCOCCOCCOCCOCCOCCOCCC(=O)N[C@@H](C)CC(=O)OC(C)(C)c1ccc(C(=O)Nc2cc(F)cc(-c3ncnc4[nH]c(-c5ccc(CCN6CCC7(CC6)CCN(C(=O)c6ccc(OC)c(N8CCC(=O)NC8=O)c6)CC7)cc5)cc34)c2C)c(F)c1)C(=O)O (stereo partly drawn)
0.2%

====

I'd appreciate it if you could supply % Release of degrader after 24 h cyno values for the items below.
# assay.comment: BTK FAC plasma stability assay, cyno plasma
# Type: in vitro ADME, cynomolgus monkey
# details: 24 h
Report as a plain number; the unit % is understood.

Output measured % Release of degrader after 24 h cyno for this item: COCCOCCOCCOCCOCCOCCOCCOCCOCCOCCOCCOCCC(=O)NCC(=O)OC(C)(C)c1ccc(C(=O)Nc2cc(F)cc(-c3ncnc4[nH]c(-c5ccc(CCN6CCC7(CC6)CCN(C(=O)c6ccc(OC)c(N8CCC(=O)NC8=O)c6)CC7)cc5)cc34)c2C)c(F)c1
13.9

Output measured % Release of degrader after 24 h cyno for this item: CCCCCCCCCCCN(C(=O)CCCCCCCCCC(=O)O)C(CCC(=O)NCCOCCOCCOCCOCCOCCOCCOCCOCCOCCOCCOCCOCCC(=O)NCc1ccc(C(=O)OC(C)(C)c2ccc(C(=O)Nc3cc(F)cc(-c4ncnc5[nH]c(-c6ccc(CCN7CCC8(CC7)CCN(C(=O)c7ccc(OC)c(N9CCC(=O)NC9=O)c7)CC8)cc6)cc45)c3C)c(F)c2)cc1)C(=O)O (stereo not drawn)
0.2

Output measured % Release of degrader after 24 h cyno for this item: CCCCCCCCCCCN(C(=O)CCCCCCCCCC(=O)O)C(CCC(=O)NCCOCCOCCOCCOCCOCCOCCOCCOCCOCCOCCOCCOCCC(=O)N1CCC[C@H]1CC(=O)OC(C)(C)c1ccc(C(=O)Nc2cc(F)cc(-c3ncnc4[nH]c(-c5ccc(CCN6CCC7(CC6)CCN(C(=O)c6ccc(OC)c(N8CCC(=O)NC8=O)c6)CC7)cc5)cc34)c2C)c(F)c1)C(=O)O (stereo partly drawn)
0.2

Output measured % Release of degrader after 24 h cyno for this item: CCCCCCCCCCCN(C(=O)CCCCCCCCCC(=O)O)[C@@H](CCC(=O)NCCOCCOCCOCCOCCOCCOCCOCCOCCOCCOCCOCCOCCC(=O)NCCCC(=O)OC(C)(C)c1ccc(C(=O)Nc2cc(F)cc(-c3ncnc4[nH]c(-c5ccc(CCN6CCC7(CC6)CCN(C(=O)c6ccc(OC)c(N8CCC(=O)NC8=O)c6)CC7)cc5)cc34)c2C)c(F)c1)C(=O)O
0.4

Output measured % Release of degrader after 24 h cyno for this item: CCCCCCCCCCCN(C(=O)CCCCCCCCCC(=O)O)C(CCC(=O)NCCOCCOCCOCCOCCOCCOCCOCCOCCOCCOCCOCCOCCC(=O)N[C@@H](C)CC(=O)OC(C)(C)c1ccc(C(=O)Nc2cc(F)cc(-c3ncnc4[nH]c(-c5ccc(CCN6CCC7(CC6)CCN(C(=O)c6ccc(OC)c(N8CCC(=O)NC8=O)c6)CC7)cc5)cc34)c2C)c(F)c1)C(=O)O (stereo partly drawn)
0.2

Output measured % Release of degrader after 24 h cyno for this item: CCCCCCCCCCCN(C(=O)CCCCCCCCCCO)C(CCC(=O)NCCOCCOCCOCCOCCOCCOCCOCCOCCOCCOCCOCCOCCC(=O)NCCC(=O)NCCC(=O)OC(C)(C)c1ccc(C(=O)Nc2cc(F)cc(-c3ncnc4[nH]c(-c5ccc(CCN6CCC7(CC6)CCN(C(=O)c6ccc(OC)c(N8CCC(=O)NC8=O)c6)CC7)cc5)cc34)c2C)c(F)c1)C(=O)O (stereo not drawn)
0.5

Output measured % Release of degrader after 24 h cyno for this item: CCCCCCCCCCCN(C(=O)CCCCCCCCCC(=O)O)C(CCC(=O)NCCOCCOCCOCCOCCOCCOCCOCCOCCOCCOCCOCCOCCC(=O)N1CCN(CC(=O)OC(C)(C)c2ccc(C(=O)Nc3cc(F)cc(-c4ncnc5[nH]c(-c6ccc(CCN7CCC8(CC7)CCN(C(=O)c7ccc(OC)c(N9CCC(=O)NC9=O)c7)CC8)cc6)cc45)c3C)c(F)c2)CC1)C(=O)O (stereo not drawn)
1.2

Output measured % Release of degrader after 24 h cyno for this item: CCCCCCCCCCCN(C(=O)CCCCCCCCCC(=O)O)C(CCC(=O)NCCOCCOCCOCCOCCOCCOCCOCCOCCOCCOCCOCCOCCOCCOCCOCCOCCC(=O)NCC(=O)OC(C)(C)c1ccc(C(=O)Nc2cc(F)cc(-c3ncnc4[nH]c(-c5ccc(CCN6CCC7(CC6)CCN(C(=O)c6ccc(OC)c(N8CCC(=O)NC8=O)c6)CC7)cc5)cc34)c2C)c(F)c1)C(=O)O (stereo not drawn)
3.7

Output measured % Release of degrader after 24 h cyno for this item: CCCCCCCCCCCN(C(=O)CCCCCCCCCC(=O)O)C(CCC(=O)NCCOCCOCCOCCOCCOCCOCCOCCOCCOCCOCCOCCOCCC(=O)NCc1ccc(C(=O)OC(C)(C)c2ccc(C(=O)Nc3cc(F)cc(-c4ncnc5[nH]c(-c6ccc(CCN7CCC8(CC7)CCN(C(=O)c7ccc(OC)c(N9CCC(=O)NC9=O)c7)CC8)cc6)cc45)c3C)c(F)c2)cn1)C(=O)O (stereo not drawn)
1.1

Output measured % Release of degrader after 24 h cyno for this item: CCCCCCCCCCCN(C(=O)CCCCCCCCCC(=O)O)C(CCC(=O)NCCOCCOCCOCCOCCOCCOCCOCCOCCOCCOCCOCCOCCC(=O)N1CCC(CC(=O)OC(C)(C)c2ccc(C(=O)Nc3cc(F)cc(-c4ncnc5[nH]c(-c6ccc(CCN7CCC8(CC7)CCN(C(=O)c7ccc(OC)c(N9CCC(=O)NC9=O)c7)CC8)cc6)cc45)c3C)c(F)c2)CC1)C(=O)O (stereo not drawn)
0.4

Output measured % Release of degrader after 24 h cyno for this item: CCCCCCCCCCCN(C(=O)CCCCCCCCCC(=O)O)C(CCC(=O)NCCOCCOCCOCCOCCOCCOCCOCCOCCOCCOCCOCCOCCC(=O)N(CC)CC(=O)OC(C)(C)c1ccc(C(=O)Nc2cc(F)cc(-c3ncnc4[nH]c(-c5ccc(CCN6CCC7(CC6)CCN(C(=O)c6ccc(OC)c(N8CCC(=O)NC8=O)c6)CC7)cc5)cc34)c2C)c(F)c1)C(=O)O (stereo not drawn)
2.5

Output measured % Release of degrader after 24 h cyno for this item: CCCCCCCCCCCN(C(=O)CCCCCCCCCC(=O)O)C(CCC(=O)NCCOCCOCCOCCOCCOCCOCCOCCOCCOCCOCCOCCOCCC(=O)NC(C)(C)CC(=O)OC(C)(C)c1ccc(C(=O)Nc2cc(F)cc(-c3ncnc4[nH]c(-c5ccc(CCN6CCC7(CC6)CCN(C(=O)c6ccc(OC)c(N8CCC(=O)NC8=O)c6)CC7)cc5)cc34)c2C)c(F)c1)C(=O)O (stereo not drawn)
0.4
